Ref: PubChem BioAssay (NCI)

- Test system: HL-60(TB) leukemia
- run.description: NCI-60 one-dose screen, 48 h (100 = growth as untreated, 0 = no growth, -100 = all killed)
- experimental.context: 10 µM unless noted
About 83,000 compounds went through this panel and 20% of them were active in at least one assay; those are over-represented in the sample as a whole.
As shown below, each of these molecules has a reported growth value.
reported.metric: growth (%)

molecule: CC/C=C\C[C@H](O)C/C=C1/C(=O)C(Cl)=C[C@@H]1C/C=C\CCCC(=O)OC
measure.unit: %
recorded.value: -2.33
//
molecule: CCOC(=O)CN1CCC(C(=O)OCC)CC1
measure.unit: %
recorded.value: 116
//
molecule: COc1cc(C2CC(c3ccc4c(c3)OCO4)=NN2C=O)cc(OC)c1OC (centres undefined)
measure.unit: %
recorded.value: 0.568
//
molecule: COc1cccc2c1Cc1ccccc1-2
measure.unit: %
recorded.value: 97.5
//
molecule: CCN(CC)CCCCCCNc1cccc2cc(Br)cnc12
measure.unit: %
recorded.value: -51.7
//
molecule: CC(=O)N1N=C(c2ccc(Nc3nc(Nc4ccc(F)cc4)nc(Nc4ccc(F)cc4)n3)cc2)CC1c1cccc([N+](=O)[O-])c1 (centres undefined)
measure.unit: %
recorded.value: 0
//
molecule: O=C(Nc1ccc(Nc2ccncc2)cc1)c1ccc([N+](=O)[O-])cc1
measure.unit: %
recorded.value: -75.2
//
molecule: CS(=O)(=O)Nc1cncc(-c2ccc3ncnc(Nc4ccc(F)c(Cl)c4)c3c2)c1
measure.unit: %
recorded.value: 6.11
//
molecule: COc1cc2nc3c(=O)n(CCN(C)C)cnn3c(=O)c2cc1OC
measure.unit: %
recorded.value: 106
//
molecule: COc1ccc(S(=O)(=O)N(Cc2ccc3c(n2)C=CC(C)(C)O3)C2CCC2)cc1OC
measure.unit: %
recorded.value: -13.5
//
molecule: O=C(Nc1ccc(-n2ccc3c(NC(=O)c4ccccc4)ncnc32)cc1)c1ccc(Cl)c(C(F)(F)F)c1
measure.unit: %
recorded.value: 34.6
//
molecule: CCCCCCN(CCCCCC)CC(O)c1cccc2ccc(Cl)cc12 (centres undefined)
measure.unit: %
recorded.value: 69.5
//
molecule: O=C1C(=O)N(CCCCn2cc(-c3ccccc3)nn2)c2ccccc21
measure.unit: %
recorded.value: 118
//
molecule: COc1ccc(-c2ccccc2)cc1-c1c(Nc2cc(Cl)cc(Cl)c2O)c(=O)c1=O
measure.unit: %
recorded.value: -29.8
//
molecule: CO[C@H](C(=O)N[C@@H](CCCCNC(=O)OCc1ccccc1)C(=O)OC(C)(C)C)[C@@H]1Cc2cc3cc(OC4CC(OC5CC(O)C(O)C(C)O5)C(O)C(C)O4)c(C)c(O)c3c(O)c2C(=O)[C@H]1OC1CC(OC2CC(OC3CC(C)(O)C(O)C(C)O3)C(O)C(C)O2)C(O)C(C)O1 (some centres undefined)
measure.unit: %
recorded.value: -0.249
//
molecule: COc1ccc2c(CCCC(c3ccccc3)c3ccccc3)c3[n+](cc2c1OC)CCc1cc2c(cc1-3)OCO2
measure.unit: %
recorded.value: -30.9
//
molecule: N#Cc1c(-c2ccccc2)cc(-c2ccccc2)n(CCCC(=O)O)c1=O
measure.unit: %
recorded.value: 103
//
molecule: FC(F)(F)c1ccc2c(c1)n1cnnc1c1nncn21
measure.unit: %
recorded.value: 104
//
molecule: CCCCCC(=O)OCc1ccc(Cl)c(Cl)c1
measure.unit: %
recorded.value: 97.2
//
molecule: O=C1CCC23OC(c4ccccc4N12)C(O)C(O)C3O (centres undefined)
measure.unit: %
recorded.value: 97
//
molecule: C=C1C(=O)O[C@H]2[C@H]1CC/C(C=Nc1c(N)cc(F)cc1Br)=C\CC[C@@]1(C)O[C@@H]21
measure.unit: %
recorded.value: 37.1
//
molecule: c1ccc2[nH]c(SSc3nc4ncncc4[nH]3)nc2c1
measure.unit: %
recorded.value: 17.1
//
molecule: COc1ccc(C(=O)N2C=Cc3ccccc3C2C#N)cc1 (centres undefined)
measure.unit: %
recorded.value: 66.5
//
molecule: Fc1ccc(NCCS)cc1
measure.unit: %
recorded.value: 100
//
molecule: CC/C=C\C[C@H](O)C/C=C1/C(=O)C=C[C@@H]1C/C=C\CCCC(=O)OCCS(=O)(=O)c1ccccc1
measure.unit: %
recorded.value: 62.1
//
molecule: C[C@@H](Oc1cc(-c2cnn(C3CC4(CNC4)C3)c2)cnc1N)c1c(Cl)ccc(F)c1Cl
measure.unit: %
recorded.value: -1.19
//
molecule: COc1cccc(-c2nn(-c3ccccc3)cc2-c2ccnc(NCCNS(=O)(=O)c3ccc(Cl)cc3)c2)c1
measure.unit: %
recorded.value: 7.06
//
molecule: CCOC(=O)Cn1nnc(-c2ccc(OCc3ccccc3F)cc2)n1
measure.unit: %
recorded.value: 102
//
molecule: Clc1cc(Cl)cc(Nc2ccc3c(OCCCN4CCOCC4)cccc3n2)c1
measure.unit: %
recorded.value: 50.5
//
molecule: COc1cc(-c2csc(NC(=O)c3cc(F)cc(C(F)(F)F)c3)n2)cc(OC)c1OC
measure.unit: %
recorded.value: 14
//
molecule: CCCCc1ccc(NS(=O)(=O)c2cc3c4c(c2)CCN4C(=O)CC3)cc1
measure.unit: %
recorded.value: -23.6
//
molecule: O=C1C=C[C@]2(C[C@@H](c3cccc(C(F)(F)F)c3)O[C@@H](c3cccc(C(F)(F)F)c3)O2)O1
measure.unit: %
recorded.value: 8.74
//
molecule: Clc1ccc2c(N3CCN(c4ccnc(NC5CCCCC5)n4)CC3)ccnc2c1
measure.unit: %
recorded.value: -13.8
//
molecule: Cn1c2ccccc2c2c3[nH]c(=O)[nH]c(=O)c3c3c4ccccc4n(C)c3c21
measure.unit: %
recorded.value: 48.9
//
molecule: CC(C)[C@@H]1CC[C@]2(C(=O)NCCCCN=C(N)N)CC[C@]3(C)[C@H](CC[C@@H]4[C@@]5(C)CCC(=O)C(C)(C)[C@@H]5CC[C@]43C)[C@@H]12
measure.unit: %
recorded.value: 13.5
//
molecule: Cc1ccc2nc(-c3ccc(N=Cc4ccccc4O)cc3)sc2c1
measure.unit: %
recorded.value: 77.7
//
molecule: COc1ccc2c(c1)C(Br)=C(CCO)C2c1ccccc1 (centres undefined)
measure.unit: %
recorded.value: 1.04
//
molecule: O=C1/C(=C\c2ccco2)SC(=S)N1CCc1ccc(O)cc1
measure.unit: %
recorded.value: 76.3
//
molecule: Cc1nc2nc(N)nc(N)c2nc1C
measure.unit: %
recorded.value: 94.2
